In what follows, each item is paired with its log10 of IC50 for rnADAMTS-5 (1-564-6H) (Rattus norvegicus, UniProt Q6TY19).
OUTCOME_MEASURE: log10 of IC50 (log10 of the value in nM)

| MOLECULE | log10 of IC50 |
| --- | --- |
| Cc1ccccc1N1CCN(C(=O)CC[C@@]2(c3ccccc3)NC(=O)NC2=O)CC1 | 2.09 |
| CC(CC1(C2CC2)NC(=O)NC1=O)C(=O)N1CCN(c2ccc(F)c(F)c2)[C@@H](C)C1 (stereo partly shown) | 1.04 |
| O=C1NC(=O)C(CCC(=O)N2CCN(c3ccc(F)c(Cl)c3)CC2)(c2ccccn2)N1 (stereo not shown) | 1.76 |
| O=C1NC(=O)C(CCC(=O)N2CCN(c3cccc(Cl)c3)CC2)(c2ccccc2)N1 (stereo not shown) | 2.03 |
| O=C1NC(=O)C(CCC(=O)N2CCN(c3ccccc3)CC2)(c2ccccc2)N1 (stereo not shown) | 1.82 |
| O=C1NC(=O)C(CCC(=O)N2CCN(c3cccc(Cl)c3)CC2)(C2CC2)N1 (stereo not shown) | 1.61 |
| CC(C)(C)C1(CCC(=O)N2CCN(c3cccc(Cl)c3)CC2)NC(=O)NC1=O (stereo not shown) | 2.17 |
| O=C1NC(=O)C(CCC(=O)N2CCN(c3ccc(F)c(F)c3)CC2)(c2ccccn2)N1 (stereo not shown) | 1.60 |
| Cc1ccc(F)cc1N1CCN(C(=O)C(C)CC2(C)NC(=O)NC2=O)C[C@@H]1C (stereo partly shown) | 2.40 |
| O=C1NC(=O)C(CCC(=O)N2CCN(c3ccc4cnccc4c3)CC2)(c2ccccc2)N1 (stereo not shown) | 2.89 |
| Cc1ccc(F)cc1N1CCN(C(=O)C(C)CC2(C3CC3)NC(=O)NC2=O)CC1 (stereo not shown) | 1.23 |
| Cc1cc(F)c(F)cc1N1CCN(C(=O)CCC2(C)NC(=O)NC2=O)CC1 (stereo not shown) | 3.48 |
| O=C(CC1(CCC(=O)N2CCN(c3cc(Cl)cc(Cl)c3)CC2)NC(=O)NC1=O)NCCO (stereo not shown) | 2.40 |
| O=C1NC(=O)C(CCC(=O)N2CCN(c3ccccc3Cl)CC2)(c2ccccc2)N1 (stereo not shown) | 3.10 |
| Cc1ccc(Cl)cc1N1CCN(C(=O)CCC2(C3CCC3)NC(=O)NC2=O)CC1 (stereo not shown) | 2.30 |

====

TARGET_OR_TEST_SYSTEM: human MMP13 (Homo sapiens (Human), UniProt P45452)
TEST_SETTINGS: read-out: hMMP-13 potency IC50
Measured IC50 of individual entries

| COMPOUND | TARGET_OR_TEST_SYSTEM | IC50 |
| --- | --- | --- |
| CC1CN(C(=O)CCC2(C3CC3)NC(=O)NC2=O)CCN1c1cc(Cl)cc(Cl)c1 (stereo not shown) | human MMP13 (Homo sapiens (Human), UniProt P45452) | > 20 µM |
| CC(CC1(CC2CCN(C(=O)OC(C)(C)C)CC2)NC(=O)NC1=O)C(=O)N1CCN(c2cc(Cl)cc(Cl)c2)CC1 (stereo not shown) | human MMP13 (Homo sapiens (Human), UniProt P45452) | 1.94 µM |
| CC(CC1(C2CC2)NC(=O)NC1=O)C(=O)N1CCN(c2ccc(F)c(F)c2)[C@@H](C)C1 (stereo partly shown) | human MMP13 (Homo sapiens (Human), UniProt P45452) | 1.88 µM |
| CC(=O)N1CC(C2(CC(C)C(=O)N3CCN(c4ccc(F)c(F)c4)[C@@H](C)C3)NC(=O)NC2=O)C1 (stereo partly shown) | human MMP13 (Homo sapiens (Human), UniProt P45452) | > 4 µM |
| CC1(CCC(=O)N2CCN(c3cc(Cl)cc(Cl)c3)CC2)NC(=O)NC1=O (stereo not shown) | human MMP13 (Homo sapiens (Human), UniProt P45452) | > 20 µM |
| COCC1(CC(C)C(=O)N2CCN(c3cccc(Cl)c3C)[C@@H](C)C2)NC(=O)NC1=O (stereo partly shown) | human MMP13 (Homo sapiens (Human), UniProt P45452) | > 20 µM |
| CC(CC1(CCNC(=O)OC(C)(C)C)NC(=O)NC1=O)C(=O)N1CCN(c2ccc(F)c(F)c2)CC1 (stereo not shown) | human MMP13 (Homo sapiens (Human), UniProt P45452) | 0.0212 µM |
| CC(CC1(C2CC2)NC(=O)NC1=O)C(=O)N1CCN(c2cc(Cl)cc(Cl)c2)CC1 (stereo not shown) [compound 172] | human MMP13 (Homo sapiens (Human), UniProt P45452) | 2.74 µM |
| CC(CC1(C)NC(=O)NC1=O)C(=O)N1CCN(c2cc(F)cc(F)c2)[C@@H](C)C1 (stereo partly shown) | human MMP13 (Homo sapiens (Human), UniProt P45452) | > 4 µM |
| COCC1(CC(C)C(=O)N2CCN(c3cc(F)ccc3C)[C@@H](C)C2)NC(=O)NC1=O (stereo partly shown) | human MMP13 (Homo sapiens (Human), UniProt P45452) | > 4 µM |
| C[C@H]1CN(C(=O)CCC2(C3CC3)NC(=O)NC2=O)CCN1c1ccc(Cl)c(Cl)c1 (stereo partly shown) [compound 408] | human MMP13 (Homo sapiens (Human), UniProt P45452) | > 4 µM |
| O=C1NC(=O)C(CCC(=O)N2CCN(c3ccc(F)c(F)c3)CC2)(c2cccnc2)N1 (stereo not shown) | human MMP13 (Homo sapiens (Human), UniProt P45452) | 1.21 µM |
| Cc1ccc(F)cc1N1CCN(C(=O)CCC2(c3cccnc3)NC(=O)NC2=O)CC1 (stereo not shown) | human MMP13 (Homo sapiens (Human), UniProt P45452) | > 20 µM |
| C[C@H]1CN(C(=O)CCC2(c3cccnc3)NC(=O)NC2=O)CCN1c1ccccc1 (stereo partly shown) | human MMP13 (Homo sapiens (Human), UniProt P45452) | > 20 µM |
| Cc1cc(F)c(F)cc1N1CCN(C(=O)CCC2(C)NC(=O)NC2=O)CC1 (stereo not shown) | human MMP13 (Homo sapiens (Human), UniProt P45452) | > 20 µM |
| COCCN(C)CC1(CCC(=O)N2CCN(c3cccc(Cl)c3)CC2)NC(=O)NC1=O (stereo not shown) | human MMP13 (Homo sapiens (Human), UniProt P45452) | > 4 µM |
| CCC1(CCC(=O)N2CCN(c3cccc(Cl)c3)CC2)NC(=O)NC1=O (stereo not shown) | human MMP13 (Homo sapiens (Human), UniProt P45452) | > 20 µM |
| Cc1c(F)cccc1N1CCN(C(=O)CCC2(c3cccnc3)NC(=O)NC2=O)CC1 (stereo not shown) | human MMP13 (Homo sapiens (Human), UniProt P45452) | > 20 µM |
| CC(C)C(CC1(C)NC(=O)NC1=O)C(=O)N1CCN(c2cc(Cl)cc(Cl)c2)CC1 (stereo not shown) | human MMP13 (Homo sapiens (Human), UniProt P45452) | 1.85 µM |
| CC(CC1NC(=O)NC1=O)C(=O)N1CCN(c2cc(Cl)cc(Cl)c2)CC1 (stereo not shown) [compound 219] | human MMP13 (Homo sapiens (Human), UniProt P45452) | > 4 µM |
| CC(CC1(C)NC(=O)NC1=O)C(=O)N1CCN(c2cc(Cl)cc(Cl)c2)[C@@H](C)C1 (stereo partly shown) | human MMP13 (Homo sapiens (Human), UniProt P45452) | > 14 µM |
| O=C1NC(=O)C(CCC(=O)N2CCN(c3cccc(Cl)c3)CC2)(C2CCC2)N1 (stereo not shown) | human MMP13 (Homo sapiens (Human), UniProt P45452) | > 4 µM |
| O=C1NC(=O)C(CCC(=O)N2CCN(c3ccc(F)c(F)c3)CC2)(C2CC2)N1 (stereo not shown) | human MMP13 (Homo sapiens (Human), UniProt P45452) | 3.62 µM |
| CN(C)c1cccc(N2CCN(C(=O)CCC3(C4CC4)NC(=O)NC3=O)CC2)c1 (stereo not shown) | human MMP13 (Homo sapiens (Human), UniProt P45452) | > 20 µM |
| O=C1NC(=O)C(CCC(=O)N2CCN(c3cc(Cl)cc(Cl)c3)CC2)(c2cccnc2)N1 (stereo not shown) | human MMP13 (Homo sapiens (Human), UniProt P45452) | > 20 µM |
| COc1ccc(Cl)cc1C1(CCC(=O)N2CCN(c3cc(Cl)ccc3C)CC2)NC(=O)NC1=O (stereo not shown) | human MMP13 (Homo sapiens (Human), UniProt P45452) | > 20 µM |
| Cc1c(Cl)cc(Cl)cc1N1CCN(C(=O)C(C)CC2(C)NC(=O)NC2=O)C[C@@H]1C (stereo partly shown) | human MMP13 (Homo sapiens (Human), UniProt P45452) | > 20 µM |
| CC(CC1(C)NC(=O)NC1=O)C(=O)N1CCN(c2cccc(Cl)c2)[C@@H](C)C1 (stereo partly shown) | human MMP13 (Homo sapiens (Human), UniProt P45452) | > 3.51 µM |
